Target: T1, monkey LAG-3 (full length, on the cell surface) (monkey, UniProt P18627 24-525 (human entry))
T1 construct: also called HEK293-cLAG-3; monkey LAG-3 protein on the cell surface
T1 chain: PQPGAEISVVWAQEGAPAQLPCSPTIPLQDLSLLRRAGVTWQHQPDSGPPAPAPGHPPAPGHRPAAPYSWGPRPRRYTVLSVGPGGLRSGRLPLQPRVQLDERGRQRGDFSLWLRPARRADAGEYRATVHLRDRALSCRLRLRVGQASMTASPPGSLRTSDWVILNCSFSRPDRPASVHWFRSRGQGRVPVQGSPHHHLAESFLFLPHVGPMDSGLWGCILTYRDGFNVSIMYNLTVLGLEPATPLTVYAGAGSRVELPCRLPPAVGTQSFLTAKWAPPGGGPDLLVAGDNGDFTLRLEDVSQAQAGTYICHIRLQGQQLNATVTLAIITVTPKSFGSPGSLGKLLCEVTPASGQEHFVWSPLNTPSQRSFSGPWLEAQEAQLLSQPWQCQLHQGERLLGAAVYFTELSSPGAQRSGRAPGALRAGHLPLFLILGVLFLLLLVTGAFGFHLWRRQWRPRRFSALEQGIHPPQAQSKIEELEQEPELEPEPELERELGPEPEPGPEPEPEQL
Assay: FACS, HEK293-cLAG-3; 0.013 nM
test.readout: Mean fluorescence intensity (MFI)
All answers are understood in MFI, so give the number only.

Please give the measured Mean fluorescence intensity for this binder: 409D4E10 (mouse antibody purified from hybridoma) (antibody, V domains shown, also called mAb112-409D4E10) VH: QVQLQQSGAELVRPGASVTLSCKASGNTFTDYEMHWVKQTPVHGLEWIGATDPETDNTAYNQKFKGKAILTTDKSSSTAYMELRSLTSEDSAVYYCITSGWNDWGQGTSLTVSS VL: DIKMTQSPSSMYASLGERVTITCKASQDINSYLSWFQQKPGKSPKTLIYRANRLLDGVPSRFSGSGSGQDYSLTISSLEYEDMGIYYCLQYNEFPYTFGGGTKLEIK
3.5
